- tested.system: acid sphingomyelinase (Homo sapiens)
- Sequence (P17405 47-631): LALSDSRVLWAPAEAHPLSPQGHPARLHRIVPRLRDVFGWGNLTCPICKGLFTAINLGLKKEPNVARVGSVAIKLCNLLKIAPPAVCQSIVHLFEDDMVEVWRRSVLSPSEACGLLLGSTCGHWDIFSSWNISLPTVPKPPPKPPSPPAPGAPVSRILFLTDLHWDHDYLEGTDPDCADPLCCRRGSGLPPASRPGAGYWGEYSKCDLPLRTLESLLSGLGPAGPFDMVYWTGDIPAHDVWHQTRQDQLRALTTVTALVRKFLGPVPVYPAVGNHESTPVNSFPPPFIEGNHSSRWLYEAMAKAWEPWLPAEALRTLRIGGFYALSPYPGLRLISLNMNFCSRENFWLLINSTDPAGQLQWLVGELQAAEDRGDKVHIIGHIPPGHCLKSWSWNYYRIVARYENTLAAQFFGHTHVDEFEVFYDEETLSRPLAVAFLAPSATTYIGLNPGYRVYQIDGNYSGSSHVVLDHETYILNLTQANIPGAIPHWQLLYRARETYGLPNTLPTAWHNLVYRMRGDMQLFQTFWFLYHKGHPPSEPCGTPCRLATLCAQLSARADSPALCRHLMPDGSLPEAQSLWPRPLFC
pIC50: −log10 of the molar value.
assay.endpoint: pIC50

mol.smiles: COc1cc(-c2nc(-c3cccs3)c(-c3ccccc3)[nH]2)cc(OC)c1O
assay.endpoint: pIC50
measured.result: < 4.00
